- System: Staphylococcus aureus
- ASSAY PROCEDURE: Antibacterial activity against clinical isolates of methicillin-resistant Staphylococcus aureus ST10342 by broth microdilution assay
- Assay type: functional
VALUE KIND: MIC (µg/mL)
Numbers only, in µg/mL.

Quick batch: MIC for everything below.
1. CC1(C)C=Cc2c(ccc3c2OC[C@@H](c2ccc(O)cc2O)C3)O1 [GLABRIDIN]
2. COc1ccc([C@@H]2COc3c(cc(/C=C/C(=O)c4cc(OC)c(OC)c(OC)c4)c4c3C=CC(C)(C)O4)C2)c(OC)c1
3. COc1cc(OC)c([C@@H]2COc3c(cc(/C=C/C(=O)c4cc(OC)c(OC)c(OC)c4)c4c3C=CC(C)(C)O4)C2)cc1/C=C/C(=O)c1cc(OC)c(OC)c(OC)c1
4. COc1cc(OC)c([C@@H]2COc3c(ccc4c3C=CC(C)(C)O4)C2)cc1/C=C/C(=O)c1ccco1
5. COc1ccc([C@@H]2COc3c(cc(/C=C/C(=O)c4ccccc4)c4c3C=CC(C)(C)O4)C2)c(OC)c1

1. 12.5
2. 25
3. 100
4. 25
5. 25

----------
Answer each item with its documented fold change (FC).
- Test system: Staphylococcus aureus
- ASSAY PROCEDURE: Potentiation of norfloxacin-induced antibacterial activity against clinical isolates of methicillin-resistant Staphylococcus aureus ST2071 assessed as reduction in norfloxacin MIC by checkerboard assay relative to control; further: test concentration or dose not given here
- Assay type: functional
Give bare numbers.

MOLECULE | VALUE KIND | ASSAY VALUE
CC1(C)C=Cc2c(ccc3c2OC[C@@H](c2ccc(O)cc2O)C3)O1 [GLABRIDIN] | fold change (FC) | 2

Quick batch: fold change (FC) for everything below.
1. COc1cc(OC)c([C@@H]2COc3c(cc(/C=C/C(=O)c4ccc(OC)c(OC)c4)c4c3C=CC(C)(C)O4)C2)cc1/C=C/C(=O)c1ccc(OC)c(OC)c1
2. COc1ccc([C@@H]2COc3c(cc(/C=C/C(=O)c4ccco4)c4c3C=CC(C)(C)O4)C2)c(OC)c1
3. COc1ccc([C@@H]2COc3c(cc(/C=C/C(=O)c4ccc(OC)c(OC)c4)c4c3C=CC(C)(C)O4)C2)c(OC)c1
4. COc1cc(OC)c([C@@H]2COc3c(cc(/C=C/C(=O)c4ccco4)c4c3C=CC(C)(C)O4)C2)cc1/C=C/C(=O)c1ccco1

1. 4
2. 8
3. 4
4. 16
